# target desc: AXL (Homo sapiens)
# Sequence (P30530 26-894): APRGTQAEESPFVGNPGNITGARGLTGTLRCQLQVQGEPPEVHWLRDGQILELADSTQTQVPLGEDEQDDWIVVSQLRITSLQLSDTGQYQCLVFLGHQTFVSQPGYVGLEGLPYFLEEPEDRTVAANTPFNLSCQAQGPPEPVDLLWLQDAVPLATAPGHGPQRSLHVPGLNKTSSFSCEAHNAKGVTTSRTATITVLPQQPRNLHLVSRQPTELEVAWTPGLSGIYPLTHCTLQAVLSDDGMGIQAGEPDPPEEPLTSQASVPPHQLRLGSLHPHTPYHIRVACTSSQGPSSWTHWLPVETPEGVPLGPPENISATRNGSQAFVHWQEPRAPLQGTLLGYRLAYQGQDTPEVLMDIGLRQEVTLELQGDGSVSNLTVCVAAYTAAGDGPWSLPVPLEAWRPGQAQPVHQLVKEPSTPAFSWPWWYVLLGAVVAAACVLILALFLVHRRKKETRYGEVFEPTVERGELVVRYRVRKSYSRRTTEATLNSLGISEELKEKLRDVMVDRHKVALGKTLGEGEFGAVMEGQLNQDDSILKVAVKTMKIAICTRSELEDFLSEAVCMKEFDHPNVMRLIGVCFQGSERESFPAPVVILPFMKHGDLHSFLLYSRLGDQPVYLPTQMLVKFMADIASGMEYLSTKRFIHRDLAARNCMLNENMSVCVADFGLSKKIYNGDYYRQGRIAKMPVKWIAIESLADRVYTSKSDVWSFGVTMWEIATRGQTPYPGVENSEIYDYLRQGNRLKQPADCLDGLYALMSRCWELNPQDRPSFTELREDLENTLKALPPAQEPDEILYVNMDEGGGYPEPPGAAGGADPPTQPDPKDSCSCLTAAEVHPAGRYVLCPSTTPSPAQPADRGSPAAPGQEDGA
Structures can show the parent of a compound that is named as a salt.
Listed below: IC50 values for each entry.

COC[C@H](C)Nc1ncc2c(-c3cc([C@H]4CC[C@H](O)CC4)n4nc(N[C@@H](C)COC)ncc34)cc([C@H]3CC[C@H](O)CC3)n2n1 | 1000 to 10000 nM
CC(CC#N)Nc1ncc2c(-c3ccc(CN4CCN(C)CC4)cc3)cc(C3CCC(O)CC3)n2n1 (stereo not drawn) | ≤ 100 nM
CC(CC(F)(F)F)Nc1ncc2c(-c3cnc(C(=O)O)nc3)cc(C3CCC(O)CC3)n2n1 (stereo not drawn) | ≤ 100 nM

Tested system AXL (Homo sapiens); IC50 recorded for CNc1c(N[C@H]2CC[C@H](c3cc(-c4ccc(CN5CCOCC5)cc4)c4cnc(N[C@@H](C)COC)nn43)CC2)c(=O)c1=O was ≤ 100 nM

Tested system AXL (Homo sapiens); IC50 recorded for COC[C@H](C)Nc1ncc2c(-c3cnn([C@@H]4CCN(C(C)=O)C4)c3)cc([C@H]3CC[C@H](O)CC3)n2n1 was ≤ 100 nM

Tested system AXL (Homo sapiens); IC50 recorded for COCC(C)Nc1ncc2c(-c3cccc(C(C)N4CCCC4)c3)cc(C3CCC(O)CC3)n2n1 (stereo not drawn) was ≤ 100 nM

Tested system AXL (Homo sapiens); IC50 recorded for CNS(=O)(=O)c1cncc(-c2cc([C@H]3CC[C@H](O)CC3)n3nc(N[C@@H](C)COC)ncc23)c1 was 100 to 1000 nM

Tested system AXL (Homo sapiens); IC50 recorded for COC[C@H](C)Nc1ncc2c(-c3cnn(C4COC4)c3)cc(C3CCOCC3)n2n1 was 100 to 1000 nM

Tested system AXL (Homo sapiens); IC50 recorded for CCCCC[C@H](C)Nc1ncc2c(C3CCNCC3)cc([C@H]3CC[C@H](O)CC3)n2n1 [Compound 116, hydrochloride] was ≤ 100 nM
